System: MDA-MB-231
Assay Comment: Antiproliferative activity against human MDA-MB-231 cells after 72 hrs by MTT assay
Format: functional, cell-based
Test Parameters: Homo sapiens, MDA-MB-231, 72 h; read-out: IC50
Measured Attribute: IC50 (nM)

Answered examples (4):
Smiles Record	IC50, nM
O=[P@@]1(c2ccccc2)O[C@H](COCc2ccccc2)[C@@H](OCc2ccccc2)[C@H](OCc2ccccc2)[C@H]1Cl	359
O=[P@@]1(c2ccccc2)O[C@H](COCc2ccccc2)[C@@H](OCc2ccccc2)[C@H](OCc2ccccc2)[C@@H]1I	466
O=[P@@]1(c2ccccc2)O[C@H](COCc2ccccc2)[C@@H](OCc2ccccc2)[C@H](OCc2ccccc2)[C@H]1I	478
O=[P@@]1(c2ccccc2)O[C@H](COCc2ccccc2)[C@@H](OCc2ccccc2)[C@H](OCc2ccccc2)[C@@H]1Br	445

I. O=[P@@]1(c2ccccc2)O[C@H](COCc2ccccc2)[C@@H](OCc2ccccc2)[C@H](OCc2ccccc2)[C@H]1Br
II. O=[P@]1(c2ccccc2)C=C(OCc2ccccc2)[C@H](OCc2ccccc2)[C@@H](COCc2ccccc2)O1
In: Hi, I'm comparing two records. Which one has the lower IC50, I or II ? Give the label under which the chosen entry appears.
Out: II

---

Assay Comment: Antimigratory activity in mouse B16F10 cells after 24 hrs by laminin-coated boyden chamber assay
Type: functional, cell-based
Test Parameters: b16-f10
Measured Attribute: Ki (nM)
Please reply with the bare figure in nM and do not write the unit itself.

Reference set (3 entries):
Smiles Record	Result Number
O=[P@@]1(c2ccccc2)O[C@H](COCc2ccccc2)[C@@H](OCc2ccccc2)[C@H](OCc2ccccc2)[C@@H]1Br	10
O=[P@@]1(c2ccccc2)O[C@H](COCc2ccccc2)[C@@H](OCc2ccccc2)[C@H](OCc2ccccc2)[C@@H]1Cl	19
O=[P@@]1(c2ccccc2)O[C@H](COCc2ccccc2)[C@@H](OCc2ccccc2)[C@H](OCc2ccccc2)[C@@H]1I	17

In: Consider the compound O=[P@@]1(c2ccccc2)O[C@H](COCc2ccccc2)[C@@H](OCc2ccccc2)[C@H](OCc2ccccc2)[C@H]1F and give its recorded Ki.
Out: 16

---

Test system: MDA-MB-435
Assay Comment: Antimigratory activity in human MDA-MB-435 cells after 24 hrs by fibronectin-coated boyden chamber assay
Type: functional, cell-based
Measured Attribute: Ki (nM)
Give your result in nM as a bare value.

Below: 2 compounds and their reported Ki.
Smiles Record	Ki [nM]
O=[P@@]1(c2ccccc2)O[C@H](COCc2ccccc2)[C@@H](OCc2ccccc2)[C@H](OCc2ccccc2)[C@H]1F	28
O=[P@@]1(c2ccccc2)O[C@H](COCc2ccccc2)[C@@H](OCc2ccccc2)[C@H](OCc2ccccc2)[C@@H]1Br	39

In: Output Ki of O=[P@@]1(c2ccccc2)O[C@H](COCc2ccccc2)[C@@H](OCc2ccccc2)[C@H](OCc2ccccc2)[C@@H]1I
Out: 29

In: Name the recorded Ki of the item O=[P@@]1(c2ccccc2)O[C@H](COCc2ccccc2)[C@@H](OCc2ccccc2)[C@H](OCc2ccccc2)[C@H]1Cl in your answer.
Out: 36

In: Note Ki for the compound shown: O=[P@@]1(c2ccccc2)O[C@H](COCc2ccccc2)[C@@H](OCc2ccccc2)[C@H](OCc2ccccc2)[C@H]1Br
Out: 28

In: Supply Ki value. Item: O=[P@@]1(c2ccccc2)O[C@H](COCc2ccccc2)[C@@H](OCc2ccccc2)[C@H](OCc2ccccc2)[C@H]1I
Out: 28

In: Recall and state the measured Ki for O=[P@@]1(c2ccccc2)O[C@H](COCc2ccccc2)[C@@H](OCc2ccccc2)[C@H](OCc2ccccc2)[C@@H]1Cl .
Out: 28
